# System: HCT-15 colon
# PROTOCOL_DETAILS: NCI tumour cell line growth inhibition, 48 h
Listing of entries alongside the reported GI50.
READOUT: GI50

# COMPOUND, ENDPOINT_RESULT
data = [
    ("COc1cc(C2CC(c3cccc(Nc4ccncc4)c3)=NN2c2ccc(Cl)cc2)cc(OC)c1OC (stereo not given)", "1.7 µM"),
    ("COc1cc(/C=C\\c2cc(OC)c(OC)c(OC)c2)cc(N/C=C\\C(=O)c2cc(OC)c(OC)c(OC)c2)c1OC", "3.08 µM"),
    ("Cc1cc(N(CCCNc2ccnc3cc(Cl)ccc23)Cc2ccc3c(c2)OCO3)nc(N2CCOCC2)n1", "0.311 µM"),
    ("C[C@H](Nc1cc(Cl)nc2c1cnn2[C@@H]1O[C@H](COP(=O)(O)CP(=O)(O)O)[C@@H](O)[C@H]1O)c1ccccc1F", "> 100 µM"),
    ("COc1ccc(-c2nnc(N3CCN(C(=O)CN4CCN(c5ccccc5)CC4)CC3)nc2-c2ccc(OC)cc2)cc1", "3.13 µM"),
]

====

# Test system: K-562 leukemia
# PROTOCOL_DETAILS: NCI tumour cell line growth inhibition, 48 h
Listing of entries alongside the reported TGI.

# MOLECULE, TGI
data = [
    ("CC(=O)OCC1OC(OC2CC3C(C)(C)C(O)CC[C@]3(C)C3CCC45CC4(CCC5[C@@H](C)CC(O)C(O)C(C)(C)O)[C@]23C)C(O)C(O)C1O (stereo not given in full)", "> 10 µM"),
    ("CCN(CC)CCSc1c2ccccc2nc2c(OC)ccc(OC)c12", "> 24.5 µM"),
    ("O=C(Nc1ccc([N+](=O)[O-])cc1[N+](=O)[O-])C(=O)C(C(=O)c1ccc2ccccc2c1)C1OC(=O)c2ccccc21 (stereo not given)", "38.8 µM"),
    ("Cc1ccc(S(=O)OCc2c(C)c(C)c(COS(=O)c3ccc(C)cc3)c(C)c2C)cc1 (stereo not given)", "> 100 µM"),
    ("O=S(=O)(Nc1ccc(Cl)cc1Cl)c1ccc(-c2cnc(C3CC3)o2)cc1", "> 100 µM"),
]

====

Listing of entries alongside the reported TGI.
# Tested on: COLO 205 colon
# PROTOCOL_DETAILS: NCI tumour cell line growth inhibition, 48 h
READOUT: TGI (µM)

# MOLECULE, READOUT, MEASURE_UNIT, RESULT_MODIFIER, ENDPOINT_RESULT
data = [
    ("NCCCn1c2c(c3ccc([N+](=O)[O-])cc3c1=O)C(=O)c1ccccc1-2", "TGI", "µM", "=", 3.82),
    ("O=C(O)CCSC(CC1(c2ccc(Cl)cc2)NC(=O)CCS1)c1ccccc1 (stereo not given)", "TGI", "µM", ">", 60.6),
    ("COC(=O)[C@@]1(C)/C(=N/NS(=O)(=O)c2ccc(C)cc2)CCC[C@@H]1C", "TGI", "µM", ">", 100),
    ("C=C1CC/C=C(\\C)CCC[C@H](C)[C@@H](O)[C@@H]2OC(=O)C(=C)[C@@H]2C[C@H]1O", "TGI", "µM", "=", 29.9),
    ("CCOC(=O)/C=C(\\C(=O)OCC)n1ccc(=O)n(Cc2cn(CCCCOC(C)=O)nn2)c1=O", "TGI", "µM", ">", 36.2),
    ("CCc1nc(N)nc(N)c1-c1ccc([N+](C)(C)C)cc1", "TGI", "µM", ">", 100),
    ("Cn1c(Nc2ccc(C(F)(F)F)cc2)nc2cc(Oc3ccnc(-c4ncc(C(F)(F)F)[nH]4)c3)ccc21", "TGI", "µM", "=", 10.6),
    ("CC(=O)NNc1nc(-c2ccc([N+](=O)[O-])cc2)c(C#N)c(=O)n1C", "TGI", "µM", ">", 100),
    ("COc1cc(C2CC(c3cccc(Nc4ccncc4)c3)=NN2c2ccc(Cl)cc2)cc(OC)c1OC (stereo not given)", "TGI", "µM", "=", 4.79),
    ("C[C@@]12CCC[C@@](C)(C(=O)O)C1CC[C@]13CC(=O)[C@](CO)(C1)[C@@H](O)CC32 (stereo not given in full)", "TGI", "µM", ">", 100),
    ("CN(C)CCNC(=O)c1cccc2ccc(-c3ccc(F)cc3)nc12", "TGI", "µM", "=", 10.9),
    ("CC(=O)NC1=N/C(=C\\c2ccc(Cl)cc2)C(=O)N1/C=C1\\C(=O)Oc2ccccc2C1=O", "TGI", "µM", ">", 100),
    ("O=C1c2cccc3cccc(c23)C(=O)N1CCCCCN1CCN(CCCCCOc2ccc(-c3nc4ccc(N5CCOCC5)cc4[nH]3)cc2)CC1", "TGI", "µM", "=", 28.7),
    ("CN1CC[C@@H](c2c(O)cc(O)c3c(=O)cc(-c4ccc(C(F)(F)F)cc4Cl)oc23)[C@@H]1CO", "TGI", "µM", "=", 32.9),
    ("BrCc1cccc(C[P+](c2ccccc2)(c2ccccc2)c2ccccc2)c1", "TGI", "µM", "=", 18.9),
    ("C=CCN1CCC(O)(c2cc(C(=O)OCC)[nH]c2-c2cc(C)no2)C1 (stereo not given)", "TGI", "µM", ">", 100),
    ("COCOC1C=CCCCC2=CC(C)=C(CC1)O2 (stereo not given)", "TGI", "µM", ">", 100),
    ("[N-]=[N+]=CC(=O)OC1Cc2ccccc2C1", "TGI", "µM", ">", 100),
    ("CCOC(=O)Cc1ccc(Nc2nc3ccccc3nc2C(=O)OCC)cc1", "TGI", "µM", ">", 100),
    ("CC(C)=CCc1cc2c(cc1O)OC[C@H]1c3cc4c(cc3O[C@@H]21)OCO4", "TGI", "µM", ">", 100),
]
